# Measured Target: human AR (Homo sapiens, UniProt P10275)
# Construct: expressed in transfected cells; host or cells: COS-1 cells
# Sequence (P10275 whole entry): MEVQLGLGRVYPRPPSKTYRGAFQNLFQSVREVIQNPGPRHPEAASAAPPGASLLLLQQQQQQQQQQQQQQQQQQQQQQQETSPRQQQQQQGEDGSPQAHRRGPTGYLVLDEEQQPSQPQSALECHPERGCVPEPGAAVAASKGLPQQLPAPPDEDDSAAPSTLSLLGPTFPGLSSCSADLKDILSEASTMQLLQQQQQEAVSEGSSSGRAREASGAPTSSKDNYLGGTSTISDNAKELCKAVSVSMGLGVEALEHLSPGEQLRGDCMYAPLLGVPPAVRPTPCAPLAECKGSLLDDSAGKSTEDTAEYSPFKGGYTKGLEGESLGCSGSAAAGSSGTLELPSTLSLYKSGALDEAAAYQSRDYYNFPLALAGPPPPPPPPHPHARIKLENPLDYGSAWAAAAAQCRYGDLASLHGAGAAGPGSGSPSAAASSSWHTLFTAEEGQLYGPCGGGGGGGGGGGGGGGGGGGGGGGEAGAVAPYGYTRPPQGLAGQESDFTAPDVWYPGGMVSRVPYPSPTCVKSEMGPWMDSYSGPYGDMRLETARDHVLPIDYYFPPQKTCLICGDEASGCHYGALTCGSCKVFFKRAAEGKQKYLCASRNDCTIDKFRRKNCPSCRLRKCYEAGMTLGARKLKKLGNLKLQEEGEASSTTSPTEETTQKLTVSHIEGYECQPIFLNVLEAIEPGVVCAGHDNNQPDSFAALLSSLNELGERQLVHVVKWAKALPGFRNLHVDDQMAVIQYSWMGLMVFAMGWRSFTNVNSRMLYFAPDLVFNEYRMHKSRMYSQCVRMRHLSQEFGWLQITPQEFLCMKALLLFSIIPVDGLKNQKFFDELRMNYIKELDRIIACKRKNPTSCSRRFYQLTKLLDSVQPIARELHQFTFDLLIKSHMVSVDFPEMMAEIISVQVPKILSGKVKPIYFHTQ
# Protocol Summary: IR Binding Assay: whole cell competitive binding of test compounds against 3H-DHT in COS-1 cells transfected with pRShAR
pKi: −log10 of the molar value.
Measurement Kind: pKi

## Input Quick one: pKi of Cc1c(C)n(CC(O)CO)c2ccc3[nH]c(=O)cc(Cl)c3c12 (centres unmarked) [Compound 290] ?
## Output < 8.00

## Input Item: CC1c2c(ccc3[nH]c(=O)cc(C(F)(F)F)c23)N(CC(F)(F)C(F)(F)F)C1C (racemic) [Compound 173]
## Output > 8.30

## Input Also, Cc1c(-c2nccs2)n(CC(F)(F)C(F)(F)F)c2ccc3[nH]c(=O)cc(Cl)c3c12 [Compound 262] please.
## Output 8.00 to 8.30

## Input Item: CCC1C(C)c2c(ccc3[nH]c(=O)cc(Cl)c23)N1CCC(F)(F)F (racemic) [Compound 170]
## Output > 8.30

## Input Consider next the compound CC1c2c(ccc3[nH]c(=O)cc(Cl)c23)N(CC(F)(F)F)C1c1ccccc1 (racemic) [Compound 130] in the same way.
## Output 8.00 to 8.30

## Input Then what about the compound Cc1c[nH]c2ccc3[nH]c(=O)cc(Cl)c3c12 [Compound 114] ?
## Output < 8.00

## Input Also need CCC1C(C)c2c(ccc3[nH]c(=O)cc(Cl)c23)N1CC(F)(F)C(F)(F)F (racemic) [Compound 177] , thanks.
## Output > 8.30

---

# Measured Target: human AR (Homo sapiens, UniProt P10275)
# Construct: expressed in transfected cells; host or cells: COS-1 cells
# Protocol Summary: IR Binding Assay: whole cell competitive binding of test compounds against 3H-DHT in COS-1 cells transfected with pRShAR
# Ki values compiled below

{"columns": ["Compound", "Ki"],
 "data": [
  ["Cc1c(-c2ccco2)n(C[C@H](O)C(F)(F)F)c2ccc3[nH]c(=O)cc(Cl)c3c12 [Compound 277]", "< 5 nM"],
  ["Cc1c(-c2ccccc2F)[nH]c2ccc3[nH]c(=O)cc(Cl)c3c12 [Compound 119]", "< 5 nM"],
  ["Cc1c(C(F)(F)F)n(CC(F)(F)F)c2ccc3[nH]c(=O)cc(Cl)c3c12 [Compound 229]", "< 5 nM"],
  ["Cc1cc2c3c(Cl)cc(=O)[nH]c3ccc2n1CC(F)(F)F [Compound 186]", "5 to 10 nM"],
  ["Cc1ccc(-c2c(C)c3c4c(Cl)cc(=O)[nH]c4ccc3n2CC(F)(F)F)cc1 [Compound 204]", "< 5 nM"]
]}

## Input Field: Ki (human AR (Homo sapiens, UniProt P10275)). Entry: CC1c2c(ccc3[nH]c(=O)cc(Cl)c23)N(CC(F)(F)F)C1c1cccc(Cl)c1 (racemic) [Compound 146]
## Output > 10 nM

## Input # repeat for Cc1c(C)n(CC(O)C(F)(F)F)c2ccc3[nH]c(=O)cc(Cl)c3c12 (racemic) [Compound 231]
## Output < 5 nM

## Input Then what about the compound Cc1c(C(F)(F)F)n(CC(F)(F)C(F)(F)F)c2ccc3[nH]c(=O)cc(Cl)c3c12 [Compound 260] ?
## Output > 10 nM

## Input Now the compound CCC1C(C)c2c(ccc3[nH]c(=O)cc(Cl)c23)N1CC(F)(F)F (racemic) [Compound 128]
## Output > 10 nM

## Input Also, Cc1c(C)n(CC(F)(F)C(F)(F)F)c2ccc3[nH]c(=O)cc(Cl)c3c12 [Compound 215] please.
## Output < 5 nM

## Input Another compound to look at: CCc1c(C)c2c3c(Cl)cc(=O)[nH]c3ccc2n1CC(O)CO (stereo not shown) [Compound 297]
## Output > 10 nM

## Input Same for Cc1c(-c2cccc(Br)c2)n(CC(F)(F)F)c2ccc3[nH]c(=O)cc(Cl)c3c12 [Compound 198]
## Output > 10 nM

---

pKi listing for selected compounds.
# Measured Target: human AR (Homo sapiens)
# Construct: expressed in transfected cells; host or cells: COS-1 cells
# Protocol Summary: IR Binding Assay: whole cell competitive binding of test compounds against 3H-DHT in COS-1 cells transfected with pRShAR
# Description: For the whole cell binding assay, COS-1 cells in 96-well microtiter plates including DMEM-10% FBS were transfected as described above with the following plasmid DNA: pRShAR (2 ng/well), pRS-β-Gal (50 ng/well) and pGEM (48 ng/well). […] For the saturation analyses, the difference between the total binding and the nonspecific binding, normalized by the β-Gal rate, was defined as specific binding. The specific binding was evaluated by Scatchard analysis to determine the Kd for ^3H-DHT. […]
pKi: −log10 of the molar value.

Solved entries:
{"columns": ["Compound", "pKi"],
 "data": [
  ["CCc1c(C)c2c3c(Cl)cc(=O)[nH]c3ccc2n1CC(F)(F)Cl", "> 8.30"],
  ["CCC1C(C)c2c(ccc3[nH]c(=O)cc(C(F)(F)F)c23)N1CCCC(F)(F)F (racemic)", "8.00 to 8.30"],
  ["C=C(C)Cn1c(C)c(C)c2c3c(C(F)(F)F)cc(=O)[nH]c3ccc21", "> 8.30"],
  ["CC1c2c(ccc3[nH]c(=O)cc(Cl)c23)N(CC(F)(F)F)C1c1ccc(F)cc1 (racemic)", "8.00 to 8.30"],
  ["CCC1C(C)c2c(ccc3[nH]c(=O)cc(Cl)c23)N1CC(F)(F)Cl (racemic)", "> 8.30"]
]}

## Input Requested read-out pKi, target or system human AR (Homo sapiens), entry `Cc1c(C)n(C[C@@H](O)C(F)(F)F)c2ccc3[nH]c(=O)cc(C(F)(F)F)c3c12`
## Output < 8.00

## Input Note, next up: CC1c2c(ccc3[nH]c(=O)cc(Cl)c23)N(CC(F)F)C1C (racemic)
## Output 8.00 to 8.30

## Input // query: `Cc1c(-c2ccncc2)n(C[C@@H](O)C(F)(F)F)c2ccc3[nH]c(=O)cc(Cl)c3c12`
## Output 8.00 to 8.30

---

# Measured Target: human AR (Homo sapiens, UniProt P10275)
# Construct: expressed in transfected cells; host or cells: COS-1 cells
# Protocol Summary: IR Binding Assay: whole cell competitive binding of test compounds against 3H-DHT in COS-1 cells transfected with pRShAR
Parameter: Ki. Scope: all listed entries.

{"columns": ["Compound", "Measured Target", "Ki"],
 "data": [
  ["Cc1c(-c2ccco2)n(CC(F)(F)C(F)(F)F)c2ccc3[nH]c(=O)cc(Cl)c3c12", "human AR (Homo sapiens, UniProt P10275)", "< 5 nM"],
  ["CCc1c(-c2cccs2)n(CC(F)(F)F)c2ccc3[nH]c(=O)cc(Cl)c3c12", "human AR (Homo sapiens, UniProt P10275)", "< 5 nM"],
  ["Cc1c(C)n(C[C@@H](O)CO)c2ccc3[nH]c(=O)cc(Cl)c3c12", "human AR (Homo sapiens, UniProt P10275)", "> 10 nM"],
  ["CCN1c2ccc3[nH]c(=O)cc(Cl)c3c2C(C)C1C (racemic)", "human AR (Homo sapiens, UniProt P10275)", "5 to 10 nM"],
  ["Cc1c(C)n(CCc2cccs2)c2ccc3[nH]c(=O)cc(Cl)c3c12", "human AR (Homo sapiens, UniProt P10275)", "> 10 nM"],
  ["Cc1c(C)n(CCCNCCO)c2ccc3[nH]c(=O)cc(C(F)(F)F)c3c12", "human AR (Homo sapiens, UniProt P10275)", "> 10 nM"],
  ["Cc1c(-c2ccc(F)cc2)[nH]c2ccc3[nH]c(=O)cc(Cl)c3c12", "human AR (Homo sapiens, UniProt P10275)", "< 5 nM"]
]}

Below: the item to evaluate.
## Input Could you share what Ki was measured for `Cc1c(-c2ccccc2)[nH]c2ccc3[nH]c(=O)cc(Cl)c3c12` , tested on human AR (Homo sapiens, UniProt P10275)?
## Output < 5 nM

---

# Measured Target: human AR (Homo sapiens, UniProt P10275)
# Construct: expressed in transfected cells; host or cells: COS-1 cells
# Protocol Summary: IR Binding Assay: whole cell competitive binding of test compounds against 3H-DHT in COS-1 cells transfected with pRShAR
Measurement Kind: Ki

Take a look at these entries with their results.
{"columns": ["Compound", "Ki"],
 "data": [
  ["Cc1c(-c2ccncc2)n(CC(F)(F)C(F)(F)F)c2ccc3[nH]c(=O)cc(Cl)c3c12", "< 5 nM"],
  ["Cc1c(-c2cccnc2)n(C[C@H](O)C(F)(F)F)c2ccc3[nH]c(=O)cc(Cl)c3c12", "> 10 nM"],
  ["CC1c2c(ccc3[nH]c(=O)cc(Cl)c23)N(CC(F)(F)F)C1c1cc(C(F)(F)F)cc(C(F)(F)F)c1 (racemic)", "< 5 nM"]
]}

## Input For human AR (Homo sapiens, UniProt P10275), provide Ki of `Cc1ccc(-c2c(C)c3c4c(Cl)cc(=O)[nH]c4ccc3n2CC(F)(F)C(F)(F)F)o1` please.
## Output 5 to 10 nM

## Input How about this compound: `Cc1cn(CC(F)(F)F)c2ccc3[nH]c(=O)cc(Cl)c3c12`
## Output 5 to 10 nM

## Input Field entry: CC1c2c(ccc3[nH]c(=O)cc(Cl)c23)N(CC(F)(F)F)C1c1ccc(O)cc1 (racemic)
## Output > 10 nM

## Input Another compound to look at: `Cc1c(-c2ccc(C(F)(F)F)cc2)n(CC(F)(F)F)c2ccc3[nH]c(=O)cc(Cl)c3c12`
## Output > 10 nM

## Input Request: `Cc1c(C)n(C[C@H](O)CO)c2ccc3[nH]c(=O)cc(Cl)c3c12`
## Output > 10 nM

## Input Same question, `Cc1c(C)n(CCC(F)(F)F)c2ccc3[nH]c(=O)cc(Cl)c3c12` this time
## Output < 5 nM

## Input Follow-up entry: `CCn1cc(C)c2c3c(Cl)cc(=O)[nH]c3ccc21`
## Output 5 to 10 nM

## Input Same for CC1c2c(ccc3[nH]c(=O)cc(Cl)c23)N(CC(F)(F)C(F)(F)F)C1c1ccccc1 (racemic)
## Output > 10 nM

## Input Follow-up entry: CC1c2c(ccc3[nH]c(=O)cc(Cl)c23)N(CCC(F)(F)F)C1c1ccccc1 (racemic)
## Output < 5 nM

## Input Same for `Cc1c(C(F)(F)F)[nH]c2ccc3[nH]c(=O)cc(Cl)c3c12`
## Output < 5 nM

## Input How about this compound: `CCc1c(C)c2c3c(Cl)cc(=O)[nH]c3ccc2n1CCC(F)(F)F`
## Output < 5 nM

## Input What do you have for `Cc1c(-c2ncco2)n(CC(F)(F)F)c2ccc3[nH]c(=O)cc(Cl)c3c12` ?
## Output < 5 nM

## Input And for CC1c2c(ccc3[nH]c(=O)cc(Cl)c23)N(CC(F)(F)F)C1c1cccc(C(F)(F)F)c1 (racemic) ?
## Output > 10 nM
